- Method: Pharmacokinetic study in brain and plasma after oral dosing, LC-MS/MS
- Format: in vivo, ICR mice
- Particulars: mouse; 10 mg/kg oral, female ICR mice, plasma; read-out: Cmax in the plasma
Measured endpoint: Cmax (ng/mL)
Could you give me the number in ng/mL? Just the number is fine.

// lookup Cmax for CN1CCc2cc3c(cc2C(=O)Cc2c(Br)cc4c(c2C1)OCO4)OCO3
91.9

----------
- Method: Pharmacokinetic study in brain and plasma after oral dosing, LC-MS/MS
- Format: in vivo, ICR mice
- Particulars: mouse; 10 mg/kg oral, female ICR mice, plasma; read-out: Tmax in the plasma (converted)
Measured endpoint: Tmax (min)
Could you give me the number in min? Just the number is fine.

// lookup Tmax for CN1CCc2cc3c(cc2C(=O)Cc2c(Br)cc4c(c2C1)OCO4)OCO3 [PRO-Br, bromo-protopine]
15
